Origin of the recorded values: patent US20120214862A1

Items are presented alongside their recorded % Inhibition of human Factor 7 mRNA levels.
Tested on: human Factor 7 mRNA
Test: Antisense inhibition of human Factor 7 mRNA in HepB3 cells, lipofectin, 50 nM, real-time RT-PCR
Assay type: cell-based
Conditions: HepB3 cells, lipofectin, 50 nM antisense oligonucleotide, approximately 24 hours, primer probe set RTS 2927, relative to untreated control
In the oligonucleotide strings, read from the 5' end, every base follows the letter of its sugar. An asterisk marks phosphorothioate; unmarked linkages are phosphodiester. Other units and linkages are bracketed, terminal groups are in braces. A string of capitals states the bases alone. e = 2'-O-(2-methoxyethyl) (MOE); [5mC] = 5-methylcytosine; d = 2'-deoxy (DNA)
readoutLabel: % Inhibition of human Factor 7 mRNA levels (%)

{"substance": "416496 (antisense e[5mC]*eA*eA*e[5mC]*eA*d[5mC]*dT*dT*d[5mC]*dA*dA*dA*dT*dA*d[5mC]*eG*eA*eT*e[5mC]*eT) [compound 416496]", "measurement": 0}
{"substance": "416539 (antisense eG*eA*e[5mC]*eA*eG*dA*dG*d[5mC]*d[5mC]*dT*dG*dA*dG*d[5mC]*dT*eT*eG*eG*e[5mC]*eA) [compound 416539]", "measurement": 53}
{"substance": "416452 (antisense e[5mC]*e[5mC]*eA*eA*e[5mC]*dA*dA*d[5mC]*dA*dG*dG*dA*d[5mC]*d[5mC]*dT*eG*e[5mC]*e[5mC]*eA*eT) [compound 416452]", "measurement": 19}
